Cited source: paper PMC7439261

- Test system: H. pylori OX.67
- Method Description: Broth dilution bioassay MIC/MBC, OX.67
- Assay type: cell-based, Helicobacter pylori
- Setup Conditions: Helicobacter pylori, OX.67, 48 h, H. pylori OX.67, broth dilution, 48 h
Quantity Kind: MIC (µg/mL)
Write down the numeric answer in µg/mL and omit the unit.

// O=C(O)c1ccc(O)c(O)c1 [PCA, protocatechuic acid] : MIC value = 250

// Cc1ncc([N+](=O)[O-])n1CCO [metronidazole] : MIC value = 2

// C[C@H]1COc2c(N3CCN(C)CC3)c(F)cc3c(=O)c(C(=O)O)cn1c23 [levofloxacin] : MIC value = 0.063

// O=c1cc(-c2ccc(O)c(O)c2)oc2cc(O)cc(O)c12 [LUT, luteolin] : MIC value = 125

---

- Method Description: Sulforhodamine cytotoxicity assay, Jurkat
- Type: cell-based
- Setup Conditions: human, Jurkat cells
Quantity Kind: CC50 at 48 h

// "O=C1C[C@@H](c2ccc(O)cc2)Oc2cc(O)cc(O)c21" : CC50 at 48 h value = 46.6 µg/mL

// CC[C@@]1(O)C(=O)OCc2c1cc1n(c2=O)Cc2cc3ccccc3nc2-1 [camptothecin, reference compound] : CC50 at 48 h value = 0.005 µg/mL

// "O=c1c(O)c(-c2cc(O)c(O)c(O)c2)oc2cc(O)cc(O)c12" : CC50 at 48 h value = 7.61 µg/mL

// "O=C(O)c1ccc(O)c(O)c1" : CC50 at 48 h value = > 200 µg/mL

// "O=c1cc(-c2ccc(O)c(O)c2)oc2cc(O)cc(O)c12" : CC50 at 48 h value = 5.12 µg/mL

---

- System Tested: H. pylori ATCC 43504 urease (Helicobacter pylori)
- Sequence (P69996 whole entry): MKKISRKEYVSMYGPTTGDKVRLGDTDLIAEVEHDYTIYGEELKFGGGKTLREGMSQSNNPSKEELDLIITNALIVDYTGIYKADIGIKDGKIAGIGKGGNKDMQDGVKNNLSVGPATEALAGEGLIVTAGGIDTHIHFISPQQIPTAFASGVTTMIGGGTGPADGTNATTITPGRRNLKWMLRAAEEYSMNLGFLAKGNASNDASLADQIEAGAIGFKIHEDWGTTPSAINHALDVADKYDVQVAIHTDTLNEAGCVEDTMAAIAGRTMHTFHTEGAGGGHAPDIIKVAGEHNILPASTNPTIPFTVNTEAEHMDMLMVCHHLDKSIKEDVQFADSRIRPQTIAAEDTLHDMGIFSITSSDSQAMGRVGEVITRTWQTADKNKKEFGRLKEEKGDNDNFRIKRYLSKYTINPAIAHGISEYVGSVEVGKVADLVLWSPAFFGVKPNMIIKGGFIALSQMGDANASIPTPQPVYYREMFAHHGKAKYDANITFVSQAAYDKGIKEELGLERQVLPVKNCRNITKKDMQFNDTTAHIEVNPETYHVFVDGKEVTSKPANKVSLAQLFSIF
- Sequence (P14916 whole entry partner): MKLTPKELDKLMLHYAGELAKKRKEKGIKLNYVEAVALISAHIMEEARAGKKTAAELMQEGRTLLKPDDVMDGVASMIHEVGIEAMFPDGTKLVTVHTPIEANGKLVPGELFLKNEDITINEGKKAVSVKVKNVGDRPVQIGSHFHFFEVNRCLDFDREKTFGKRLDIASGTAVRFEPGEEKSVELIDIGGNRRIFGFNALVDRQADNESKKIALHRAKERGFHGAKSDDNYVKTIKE
- Method Description: Urease inhibition, salicylate-hypochlorite method
- Type: biochemical
- Setup Conditions: slope of dose-response curve of percentage of urease inhibition
Provide the recorded slope ± SE for the entries that follow.
Please reply with the value in numeric form only.

// NC(N)=S [thiourea, reference compound] : slope ± SE value = 1.79

// "O=c1cc(-c2ccc(O)c(O)c2)oc2cc(O)cc(O)c12" : slope ± SE value = 2.16

// "O=C(O)c1ccc(O)c(O)c1" : slope ± SE value = 2.00

// "O=C1C[C@@H](c2ccc(O)cc2)Oc2cc(O)cc(O)c21" : slope ± SE value = 1.38

---

- Test system: H. pylori OX.67
- Method Description: Broth dilution bioassay MIC/MBC, OX.67
- Assay type: cell-based, Helicobacter pylori
- Setup Conditions: Helicobacter pylori, OX.67, 48 h, H. pylori OX.67, broth dilution, 48 h
Quantity Kind: MIC

// CC[C@H]1OC(=O)[C@H](C)[C@@H](O[C@H]2C[C@@](C)(OC)[C@@H](O)[C@H](C)O2)[C@H](C)[C@@H](O[C@@H]2O[C@H](C)C[C@H](N(C)C)[C@H]2O)[C@](C)(O)C[C@@H](C)CN(C)[C@H](C)[C@@H](O)[C@]1(C)O [azithromycin] : MIC value = 64 µg/mL

// O=c1c(O)c(-c2cc(O)c(O)c(O)c2)oc2cc(O)cc(O)c12 [MCT, myricetin] : MIC value = 150 µg/mL

// O=C1C[C@@H](c2ccc(O)cc2)Oc2cc(O)cc(O)c21 [NRG, naringenin] : MIC value = 100 µg/mL

// CC[C@H]1OC(=O)[C@H](C)[C@@H](O[C@H]2C[C@@](C)(OC)[C@@H](O)[C@H](C)O2)[C@H](C)[C@@H](O[C@@H]2O[C@H](C)C[C@H](N(C)C)[C@H]2O)[C@](C)(O)C[C@@H](C)C(=O)[C@H](C)[C@@H](O)[C@]1(C)O [erythromycin] : MIC value = 64 µg/mL

// CC1(C)S[C@@H]2[C@H](NC(=O)[C@H](N)c3ccc(O)cc3)C(=O)N2[C@H]1C(=O)O [amoxicillin] : MIC value = 0.031 µg/mL
